Assay: Antiproliferative activity against human SW620 cells assessed as cell growth inhibition after 48 hrs by MTT assay
Format: functional, cell-based
Conditions: SW-620, 48 h
Property Measured: IC50

Worked examples follow.
Cc1ccc(NC(=O)NC(=O)c2ccc(OCc3ccc(F)cc3)cc2)cc1-c1nc2ccccc2[nH]1: 35.1 µM
O=C(NC(=S)Nc1ccc(Cl)c(-c2nc3ccccc3[nH]2)c1)c1ccc(OCc2ccc(C(F)(F)F)cc2)cc1: 63.9 µM
Cc1ccc(NC(=O)NC(=O)c2ccc(OCc3cccc(Cl)c3Cl)cc2)cc1-c1nc2ccccc2[nH]1: 42.1 µM
O=C(NC(=O)c1ccc(OCc2ccc(F)cc2)cc1)Nc1ccc(Cl)c(-c2nc3ccccc3[nH]2)c1: 33.6 µM
O=C(NC(=S)Nc1ccc(Cl)c(-c2nc3ccccc3[nH]2)c1)c1ccc(OCc2ccc(Cl)c(Cl)c2)cc1: 24.9 µM

Lab note: each molecule below needs its IC50 filled in.
1. Cc1ccc(NC(=S)NC(=O)c2ccc(OCc3ccc(Cl)c(Cl)c3)cc2)cc1-c1nc2ccccc2[nH]1
2. Cc1ccc(NC(=S)NC(=O)c2ccc(OCc3ccccc3)cc2)cc1-c1nc2ccccc2[nH]1

Outgoing:
30.7 µM
67.1 µM

Provide IC50 values for the following items, in order.
1. COc1cc(C(=O)NC(=S)Nc2cccc(NC(=O)c3ccccc3)c2)cc(OC)c1OC
2. Cc1ccc(NC(=S)NC(=O)c2ccc(OCc3ccc(F)cc3)cc2)cc1-c1nc2ccccc2[nH]1
3. Cc1ccc(COc2ccc(C(=O)NC(=S)Nc3ccc(C)c(-c4nc5ccccc5[nH]4)c3)cc2)cc1
4. Cc1ccc(NC(=O)NC(=O)c2ccc(OCc3ccccc3)cc2)cc1-c1nc2ccccc2[nH]1
5. Cc1ccc(NC(=S)NC(=O)c2ccc(OCc3ccc(C(F)(F)F)cc3)cc2)cc1-c1nc2ccccc2[nH]1
6. Cc1ccc(NC(=O)NC(=O)c2ccc(OCc3ccc(Cl)c(Cl)c3)cc2)cc1-c1nc2ccccc2[nH]1
7. Cc1ccc(NC(=O)NC(=O)c2ccc(OCc3cccc(Cl)c3)cc2)cc1-c1nc2ccccc2[nH]1

Outgoing:
1: 21.2 µM; 2: 40.5 µM; 3: 60.9 µM; 4: 30.1 µM; 5: 72.4 µM; 6: 6.1 µM; 7: 16 µM

// each molecule listed below needs its IC50
1. Cc1ccc(NC(=S)NC(=O)c2ccc(OCc3ccccc3Cl)cc2)cc1-c1nc2ccccc2[nH]1
2. Cc1ccc(NC(=S)NC(=O)c2ccc(OCc3ccccc3F)cc2)cc1-c1nc2ccccc2[nH]1

Outgoing:
["57.1 µM", "6.44 µM"]

Batch request: IC50 for each of the following molecules.
1. Cc1ccc(NC(=O)NC(=O)c2ccc(OCc3cccc(F)c3)cc2)cc1-c1nc2ccccc2[nH]1
2. Cc1ccc(NC(=S)NC(=O)c2ccc(OCc3cccc(F)c3)cc2)cc1-c1nc2ccccc2[nH]1
3. Cc1ccc(COc2ccc(C(=O)NC(=O)Nc3ccc(Cl)c(-c4nc5ccccc5[nH]4)c3)cc2)cc1
4. O=C(NC(=O)c1ccc(OCc2ccccc2F)cc1)Nc1ccc(Cl)c(-c2nc3ccccc3[nH]2)c1
5. Cc1ccc(NC(=S)NC(=O)c2ccc(OCc3cccc(Cl)c3Cl)cc2)cc1-c1nc2ccccc2[nH]1

Outgoing:
1. 39.6 µM
2. > 100 µM
3. 23.2 µM
4. 2.93 µM
5. > 100 µM

---

Test: Antiproliferative activity against human SW620 cells assessed as cell growth inhibition after 48 hrs by MTT assay
Assay type: functional, cell-based
Conditions: SW-620, 48 h
pIC50: −log10 of the molar value.
Short version: pIC50 at least 5 is Criterion met, less is Criterion not met.

Take a look at these entries with their results.
Cc1ccc(NC(=S)NC(=O)c2ccc(OCc3ccc(Cl)cc3Cl)cc2)cc1-c1nc2ccccc2[nH]1: Criterion not met
Cc1ccc(NC(=O)NC(=O)c2ccc(OCc3ccccc3Cl)cc2)cc1-c1nc2ccccc2[nH]1: Criterion not met
Cc1ccc(COc2ccc(C(=O)NC(=O)Nc3ccc(C)c(-c4nc5ccccc5[nH]4)c3)cc2)cc1: Criterion not met
Cc1ccc(NC(=S)NC(=O)c2ccc(OCc3cccc(Cl)c3)cc2)cc1-c1nc2ccccc2[nH]1: Criterion not met
Cc1ccc(NC(=S)NC(=O)c2ccc(OCc3cccc(C(F)(F)F)c3)cc2)cc1-c1nc2ccccc2[nH]1: Criterion not met

Incoming: Reported pIC50 at or above 5? "Cc1ccc(NC(=O)NC(=O)c2ccc(OCc3ccccc3F)cc2)cc1-c1nc2ccccc2[nH]1"
Outgoing: Criterion met
